- SYSTEM_NAME: T1, human transferrin receptor 1 (hTfR) (human, UniProt P02786 89-760, limits assumed)
- T1 construct: also called TFRC; transferrin receptor protein 1
- METHOD: in vitro binding screen, method not described

BINDER	binding result
69340 (antibody, V domains shown, Anti-hTfR antibody of the initial screen; only variable domains are tied to it) VH: EVQLVESGGGLVQPGRSLRLSCAASGFTFDDKAMHWVRQVPGKGLEWISGISWNSGTIGYADSVKGRFIISRDNAKNSLYLQMNSLRAEDTALYYCAKDGDTSGWYWYGLDVWGQGTTVTVSS VL: EIVLTQSPATLSLSPGERATLSCRASQSVSSYLAWYQQKPGQAPRLLIHDVSNRATGIPARFSGSGSGTDFTLTISSLEPEDFVVYYCQQRSDWPITFGQGTRLEIK	binds
69307 (antibody, V domains shown, Anti-hTfR antibody of the initial screen; only variable domains are tied to it) VH: EVQLVESGGGLVQPGGSLRLSCTASGFTFSNYWMTWVRQAPGKGLEWVANIKEDGSEKEYVDSVKGRFTISRDNAKNSLYLQMNSLRGEDTAVYYCARDGEQLVDYYYYYVMDVWGQGTTVTVSS VL: DIQMTQSPSSVSASVGDRVTITCRASQGISSWLAWYQQKPGKAPKLLIYAASSLQSGVPSRFSGSGSGTDFTLTISSLQPEDFATYYCQKADSLPYAFGQGTKLEIK	binds

Source listed as patent US20230338477A1.
